Tested on: JAK1-dependent STAT6 phosphorylation downstream of IL-13 stimulation in TF-1 human erythroleukemia cells
Assay: JAK1 pathway assay in TF-1 cells (IL-13-pSTAT6, MSD)
Format: cell-based
Settings: Homo sapiens, TF-1, TF-1 cells, read-out: IL13-pSTAT6 EC50_TF-1
pEC50: −log10 of the molar value.
Each item that follows carries a reported pEC50.
measureName: pEC50

| molecule | measureName | valueReported |
| --- | --- | --- |
| CN1CCC2(CCN(C(=O)Cn3cc(NC(=O)c4cnn5cccnc45)c(-c4cc(Cl)ccc4OC(F)F)n3)C2)C1 (stereo not drawn) [Example 212] | pEC50 | 7.51 |
| Nc1nn2cccnc2c1C(=O)Nc1cn(C2CCN(CCCC(=O)N3CCCCC3)CC2)nc1-c1cc(Cl)ccc1OC(F)F [Example 143] | pEC50 | 7.69 |
| CN1CCC2CN(C(=O)Cn3cc(NC(=O)c4cnn5cccnc45)c(-c4cc(Cl)ccc4OC(F)F)n3)CCC21 (stereo not drawn) [Example 29] | pEC50 | 8.25 |
| CCCCN(CCOc1ccc(C)cc1)C1CCN(C(=O)Cn2cc(NC(=O)c3cnn4cccnc34)c(-c3cc(Cl)ccc3OC(F)F)n2)CC1 [Example 108] | pEC50 | 7.37 |
| Nc1nn2cccnc2c1C(=O)Nc1cn(CC(=O)N2C[C@H]3CN(CC4CC4)C[C@H]3C2)nc1-c1cc(Cl)ccc1OC(F)F [Example 57] | pEC50 | 7.82 |
| Nc1nn2cccnc2c1C(=O)Nc1cn(C2CCN(CCCN3CCCC3=O)CC2)nc1-c1cc(Cl)ccc1OC(F)F [Example 146] | pEC50 | 8.41 |

----------
Biological target: isolated recombinant JAK2 kinase domain (Homo sapiens (Human), UniProt O60674)
Sequence (O60674 849-1124): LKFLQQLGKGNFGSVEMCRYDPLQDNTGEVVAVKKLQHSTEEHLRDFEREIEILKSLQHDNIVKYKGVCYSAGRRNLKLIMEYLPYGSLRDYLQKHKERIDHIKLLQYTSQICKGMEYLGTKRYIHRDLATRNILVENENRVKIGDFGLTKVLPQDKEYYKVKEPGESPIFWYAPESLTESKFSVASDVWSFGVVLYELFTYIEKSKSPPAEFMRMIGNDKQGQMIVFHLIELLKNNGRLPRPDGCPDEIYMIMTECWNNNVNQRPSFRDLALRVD
Assay: JAK2 enzyme assay (Caliper LabChip, peptide phosphorylation)
Details: 25 μM ATP
Where a name gives a salt, the structure may show the parent alone.
Each item that follows carries a reported Ki.
measureName: Ki (pM)

| compound | valueReported |
| --- | --- |
| CNC(=O)CN1CCC(n2cc(NC(=O)c3cnn4cccnc34)c(-c3cc(Cl)ccc3OC(F)F)n2)CC1 | 750 |
| CN(CC1(C#N)CCCCC1)C1CCN(C(=O)C2CCN(c3nc(-c4cc(Cl)ccc4OC(F)F)c(NC(=O)c4cnn5cccnc45)s3)CC2)CC1 | 1410 |
| CCN(Cc1ccnc(Cl)c1)C(=O)Cn1cc(NC(=O)c2cnn3cccnc23)c(-c2cc(Cl)ccc2OC(F)F)n1 | 180 |
| N#CC1(CNC2CCN(C(=O)Cn3cc(NC(=O)c4cnn5cccnc45)c(-c4cc(Cl)ccc4OC(F)F)n3)CC2)CC1 | 920 |
| O=C(Nc1cn(CC(=O)N2CCC3(CNC3)C2)nc1-c1cc(Cl)ccc1OC(F)F)c1cnn2cccnc12 | 1280 |
| CC(=O)NCCCN1CCC(n2cc(NC(=O)c3cnn4cccnc34)c(-c3cc(Cl)ccc3OC(F)F)n2)CC1 [Example 142, hydrochloride] | 380 |
| CN1CCC2(CC1)CN(C(=O)Cn1cc(NC(=O)c3cnn4cccnc34)c(-c3cc(Cl)ccc3OC(F)F)n1)CCO2 | 2340 |

----------
System: JAK1-dependent STAT6 phosphorylation downstream of IL-13 stimulation in BEAS-2B human bronchial epithelial cells
Assay: JAK1 pathway assay in BEAS-2B cells (IL-13-pSTAT6, MSD)
Format: cell-based
Settings: read-out: IL13-pSTAT6 EC50 (uM)_BEAS-2B
Counter-ions that a name gives are not always drawn.
Binary call on EC50 with cut-off 0.03 µM: strictly below means T, and equality or higher means F.

| molecule | className |
| --- | --- |
| N=C(N)CCCn1cc(NC(=O)c2cnn3cccnc23)c(-c2cc(Cl)ccc2OC(F)F)n1 | F |
| CN(CC1(C#N)CC1)C1CCN(C(=O)Cn2cc(NC(=O)c3cnn4cccnc34)c(-c3cc(Cl)ccc3OC(F)F)n2)CC1 | T |
| CCOC(=O)CN1CCN(C(=O)Cn2cc(NC(=O)c3cnn4cccnc34)c(-c3cc(Cl)ccc3OC(F)F)n2)CC1 | T |
| CC(C#N)CNC1CCN(C(=O)Cn2cc(NC(=O)c3cnn4cccnc34)c(-c3cc(Cl)ccc3OC(F)F)n2)CC1 (stereo not drawn) | F |
| CN1CC[C@@H]2[C@H](CCN2C(=O)Cn2cc(NC(=O)c3cnn4cccnc34)c(-c3cc(Cl)ccc3OC(F)F)n2)C1 | F |
| CN[C@@H]1CCC[C@H](n2cc(NC(=O)c3c(N)nn4cccnc34)c(-c3cc(Cl)ccc3OC(F)F)n2)C1 | T |
| N#CC1CCN(C2CCN(C(=O)Cn3cc(NC(=O)c4cnn5cccnc45)c(-c4cc(Cl)ccc4OC(F)F)n3)CC2)CC1 | T |
| CN(C)C(=O)CN1CCC(CN2CCN(C(=O)Cn3cc(NC(=O)c4cnn5cccnc45)c(-c4cc(Cl)ccc4OC(F)F)n3)CC2)CC1 | F |
| COC(=O)CNC1CCN(C(=O)Cn2cc(NC(=O)c3cnn4cccnc34)c(-c3cc(Cl)ccc3OC(F)F)n2)CC1 [Example 329, formate] | T |
| CN(C)CC(=O)Cn1cc(NC(=O)c2cnn3cccnc23)c(-c2cc(Cl)ccc2OC(F)F)n1 | T |
| COC(=O)CCN(C)C1CCN(C(=O)Cn2cc(NC(=O)c3cnn4cccnc34)c(-c3cc(Cl)ccc3OC(F)F)n2)CC1 | T |
| O=C(Nc1cn(CC(=O)N2CCN(C3CCOCC3)CC2)nc1-c1cc(Cl)ccc1OC(F)F)c1cnn2cccnc12 | T |
| CC(C)(C#N)CNC1CCN(C(=O)Cn2cc(NC(=O)c3cnn4cccnc34)c(-c3cc(Cl)ccc3OC(F)F)n2)CC1 | T |
| CN1CCN(c2nc(-c3cc(Cl)ccc3OC(F)F)c(NC(=O)c3cnn4cccnc34)s2)CC1 | F |
| CC(C)CN1CCN(C(=O)Cn2cc(NC(=O)c3cnn4cccnc34)c(-c3cc(Cl)ccc3OC(F)F)n2)CC1 | T |
| NC1CCN(C(=O)Cn2cc(NC(=O)c3cnn4cccnc34)c(-c3cc(Cl)ccc3OC(F)F)n2)CC1 | F |
| O=C(Nc1cn([C@H]2CNCC[C@@H]2O)nc1-c1cc(Cl)ccc1OC(F)F)c1cnn2cccnc12 | T |
| CN(CC1(C)COC1)C1CCN(c2nc(-c3cc(Cl)ccc3OC(F)F)c(NC(=O)c3cnn4cccnc34)s2)CC1 | T |
| C[C@@H](Cn1cc(NC(=O)c2cnn3cccnc23)c(-c2cc(Cl)ccc2OC(F)F)n1)N(C)C | F |
| COC(=O)CN1CCN(C(=O)Cn2cc(NC(=O)c3cnn4cccnc34)c(-c3cc(Cl)ccc3OC(F)F)n2)CC1 | F |
| CCN[C@@H](C)Cn1cc(NC(=O)c2cnn3cccnc23)c(-c2cc(Cl)ccc2OC(F)F)n1 | T |
| CN(C1CCN(C(=O)Cn2cc(NC(=O)c3cnn4cccnc34)c(-c3cc(Cl)ccc3OC(F)F)n2)CC1)C1COC1 | T |
| O=C(Nc1cn(CC(=O)N2CCN(Cc3ccccc3)CC2)nc1-c1cc(Cl)ccc1OC(F)F)c1cnn2cccnc12 | F |
| CCOC(=O)CCN1CCN(C(=O)Cn2cc(NC(=O)c3cnn4cccnc34)c(-c3cc(Cl)ccc3OC(F)F)n2)CC1 | F |
| O=C(Nc1cn(CC(=O)N2CCC(C(=O)OCC3CCNCC3)CC2)nc1-c1cc(Cl)ccc1OC(F)F)c1cnn2cccnc12 | F |
